meta.source: the supplement of paper PMC12636033

tested on: muMax20 (Max(13-93) K31hArg/K57hArg, M65Nle); test: PBM 8-mer E-score (E-score (rank enrichment, -0.5 to 0.5)); higher = stronger preferential binding
Whole data set: some 33,000 sequences, median “E-score (rank enrichment, -0.5 to 0.5)” near -0.0068, cut for the highest 2% near 0.24. Only a selection was taken, and the highest values are over-represented in it overall.
Note to self: values exactly at 0.03 are criterion met. So PBM 8-mer E-score at or above 0.03 is criterion met, below is criterion not met.

Does "GGGTGTTA" have a reported PBM 8-mer E-score of at least 0.03?
criterion met

Repeat for the following sequence: "CACAATAA"
criterion met

Another sequence to check: "TAGTGTGA"
criterion met

Could you do the same for "ATCGTAAA" , please?
criterion met

Now consider "CATATAAA" .
criterion met

Proceed to "TACACCAA"
criterion not met

Field entry: "AATTGGCC"
criterion not met

# repeat for "TATATAAA"
criterion met

One more sequence: "CTAAAGCA"
criterion met

And for "AAGCGTCC" ?
criterion not met

What about this sequence? "GATATAAA"
criterion met

Please answer likewise for "AATATAAG"
criterion met

How about "TACAATAA" ?
criterion met

Ok, now "AATATAAT"
criterion met

Entry to check: "CAGTGTGA"
criterion met

Same question, "GTGAATTA" this time
criterion met

Please answer likewise for "GAGTGGAA"
criterion not met

Consider next the sequence "GATAATCC" in the same way.
criterion not met

Could you do the same for "CGGTTCAC" , please?
criterion not met

Another: "ACCCGAGG"
criterion not met

Proceed to "AGCGCTCC"
criterion not met

Cool, now "AAGAAAGA"
criterion not met

Also check "GAAATCAA"
criterion met

What do you have for "GCTAATCA" ?
criterion not met

----------
test system: muMax20 (Max(13-93) K31hArg/K57hArg, M65Nle); assay: PBM 8-mer E-score (E-score (rank enrichment, -0.5 to 0.5)); higher = stronger preferential binding
Whole data set: some 33,000 sequences, median “E-score (rank enrichment, -0.5 to 0.5)” near -0.0068, cut for the highest 2% near 0.24. The full list was thinned out, with the highest values kept by preference.
assay-metric: PBM 8-mer E-score
Form rule: numeric answer, no unit written next to it.

Need PBM 8-mer E-score of "GGGGTGAA" , thanks.
0.0293

Note, next up: "AAGCTGAC"
-0.16

Consider next the sequence "GGAATGGA" in the same way.
-0.00962

----------
Recorded measurements of PBM 8-mer E-score, one per entry
test system: muMax20 (Max(13-93) K31hArg/K57hArg, M65Nle); test: PBM 8-mer E-score (E-score (rank enrichment, -0.5 to 0.5)); higher = stronger preferential binding
In all, about 33,000 sequences were measured (“E-score (rank enrichment, -0.5 to 0.5)”: median about -0.0068, highest 2% from about 0.24 on). This excerpt belongs to a sample that is enriched for the highest values.
No unit in the answer, please; the number alone is enough.

The following sequences have reported results that may help.
biosequence=CGTTATAG quantitative_readout=0.262
biosequence=CAAACGGC quantitative_readout=-0.242
biosequence=GAGGTAGA quantitative_readout=0.0124

Can you look up PBM 8-mer E-score on muMax20 (Max(13-93) K31hArg/K57hArg, M65Nle) for "ATTAGTAC" ?
0.0781

Param item: "AGTTATAT"
0.244

Could you do the same for "GTGTTTGA" , please?
0.241

Also check "ATATTGAT"
0.25

Quick one: "ATATTGAA"
0.161

# repeat for "CGCGTTAG"
-0.0996

----------
system: muMax20 (Max(13-93) K31hArg/K57hArg, M65Nle); assay: PBM 8-mer E-score (E-score (rank enrichment, -0.5 to 0.5)); higher = stronger preferential binding
Over roughly 33,000 sequences, “E-score (rank enrichment, -0.5 to 0.5)” has its median near -0.0068; the highest 2% begin near 0.24. This is one part of a sample in which the highest values are shown more often than they occur.
# maps each entry to its PBM 8-mer E-score
# print the numeric value only

biosequence=CAGAGCCA assay_metric="PBM 8-mer E-score" quantitative_readout=-0.17
biosequence=GGAGGGCA assay_metric="PBM 8-mer E-score" quantitative_readout=0.044
biosequence=TATATACA assay_metric="PBM 8-mer E-score" quantitative_readout=0.178
biosequence=GATAACGC assay_metric="PBM 8-mer E-score" quantitative_readout=0.105
biosequence=CATATACA assay_metric="PBM 8-mer E-score" quantitative_readout=0.254
biosequence=CTCTTGAC assay_metric="PBM 8-mer E-score" quantitative_readout=-0.0583
biosequence=GGAAAGGA assay_metric="PBM 8-mer E-score" quantitative_readout=-0.246
biosequence=CGCGCCAG assay_metric="PBM 8-mer E-score" quantitative_readout=-0.222

Recorded PBM 8-mer E-score of "GATATACA" , please.
0.0962

Would you mind doing "AACGAGGT" as well?
-0.0494

Further, for "GGGTAATA" ?
0.117

Then this sequence: "TATATAGA"
0.0968

Entry to check: "CATGTTAC"
0.123

----------
system: muMax20 (Max(13-93) K31hArg/K57hArg, M65Nle); assay: PBM 8-mer E-score (E-score (rank enrichment, -0.5 to 0.5)); higher = stronger preferential binding
Over roughly 33,000 sequences, “E-score (rank enrichment, -0.5 to 0.5)” has its median near -0.0068; the highest 2% begin near 0.24. This excerpt belongs to a sample that is enriched for the highest values.
// label = y if PBM 8-mer E-score is not less than 0.2, otherwise n

As a guide, the following entries are already answered.
biosequence=ACGCACGT label_class=y
biosequence=TGAAATCA label_class=n
biosequence=GAGCCAAC label_class=n
biosequence=AACGAACG label_class=n
biosequence=AAGCACGA label_class=n
biosequence=ATACGATA label_class=y
biosequence=CTACGATA label_class=n
biosequence=AAATTATA label_class=n

Can "AATTTGCA" be said to have PBM 8-mer E-score at or above 0.2?
n

Quick one: "CTATTACA"
n

# repeat for "GTACGATA"
n

And "ATTACGGA" ?
n

Now consider "AAGCACGG" and answer again.
n

Now consider "ACGCACGC" .
n

Item: "AAATTATG"
y

Input "ACGCACAA"
n

For "CTATTATA" then?
n

Next sequence: "ACATTATA"
y

Now the same for "AAGCACGT"
y

Continue with "ACAACGAC"
n

Next sequence: "ACGCACGA"
n

Lookup "ATATTACA"
n

----------
Measured PBM 8-mer E-score, listed per entry for reference.
tested on: muMax20 (Max(13-93) K31hArg/K57hArg, M65Nle); assay: PBM 8-mer E-score (E-score (rank enrichment, -0.5 to 0.5)); higher = stronger preferential binding
Whole data set: some 33,000 sequences, median “E-score (rank enrichment, -0.5 to 0.5)” near -0.0068, cut for the highest 2% near 0.24. Shown is part of a subset that was picked to be rich in the highest values.
The answer should be a number; do not append a unit.

biosequence=ATAATAAA assay_metric="PBM 8-mer E-score" quantitative_readout=0.217
biosequence=ACGTATCT assay_metric="PBM 8-mer E-score" quantitative_readout=0.0322
biosequence=ATAAGAAT assay_metric="PBM 8-mer E-score" quantitative_readout=0.165
biosequence=GTAACGTA assay_metric="PBM 8-mer E-score" quantitative_readout=0.0209
biosequence=ATAACGTA assay_metric="PBM 8-mer E-score" quantitative_readout=0.24

Record lookup: for muMax20 (Max(13-93) K31hArg/K57hArg, M65Nle), what PBM 8-mer E-score belongs to "AAGTATGA" ?
0.071

Follow-up item: "GTATAACA"
0.228

Proceed to "ATATAACG"
0.269

Follow-up item: "GGTGGATA"
-0.0515

What would you report for "CTAGTAAC" ?
0.196

Now consider "ATGGGCGG" .
0.009

Okay, and "CGATGGAG" ?
-0.153

Follow-up item: "CATATTAC"
0.0522

Further, for "ATATAACA" ?
0.262

Repeat with "ATAGAGCA"
-0.146

Param item: "GTAATAAC"
0.156

# iterate: "AAGCTACG"
0.0404

Next sequence up: "GAACGCCA"
-0.206

Note, next up: "CGCATAAC"
0.153

Also "CCCACGGA" , if possible.
-0.0746

Same thing, different sequence: "ACTTATAA"
0.0449

What do you get for "CAGAGTTA" ?
-0.0653

Same for "ATAACGTC"
0.121

Proceed to "AAATTCCA"
0.254

Now the sequence "CTGTCACA"
0.00831

Next: "ATAATAAC"
0.315

Can you check "TAGTATGA" next?
0.247

Could you do the same for "CAGGCTGG" , please?
-0.172

Follow-up item: "CTTCGCAC"
0.163
